Biological target: SMG1 (Homo sapiens (Human))
Experiment: KiNativ assay
Type: binding
Details: H929 live cell, read-out: inhibition (10 μM)
Quantity Name: inhibition at 10 µM (%)

* Nc1ncc(-c2cccc([N+](=O)[O-])c2F)cc1-c1ccc2c(c1)CCNC2=O | 94.7
* Nc1ncc(-c2ccc(NS(=O)(=O)C3CC3)cc2F)cc1-c1ccc2c(c1)CCNC2=O | 55.8
* Nc1ncc(-c2cccc3ncsc23)cc1-c1ccc2c(c1)CCNC2=O | 61
* Nc1ncc(-c2ccc(NS(=O)(=O)C3CC3)cc2OC2CCCCC2)cc1-c1ccc2c(c1)CCNC2=O | 68.8
* COc1cc(NS(=O)(=O)C2CC2)ccc1-c1cnc(N)c(-c2ccc3c(c2)CCNC3=O)c1 | 30.8
* CN(C1CC1)S(=O)(=O)c1ccc(-c2cnc(N)c(-c3ccc4c(c3)CCNC4=O)c2)c(F)c1 | 42.9

----------
Target: PKN1 (Homo sapiens (Human))
Sequence (Q16512 whole entry): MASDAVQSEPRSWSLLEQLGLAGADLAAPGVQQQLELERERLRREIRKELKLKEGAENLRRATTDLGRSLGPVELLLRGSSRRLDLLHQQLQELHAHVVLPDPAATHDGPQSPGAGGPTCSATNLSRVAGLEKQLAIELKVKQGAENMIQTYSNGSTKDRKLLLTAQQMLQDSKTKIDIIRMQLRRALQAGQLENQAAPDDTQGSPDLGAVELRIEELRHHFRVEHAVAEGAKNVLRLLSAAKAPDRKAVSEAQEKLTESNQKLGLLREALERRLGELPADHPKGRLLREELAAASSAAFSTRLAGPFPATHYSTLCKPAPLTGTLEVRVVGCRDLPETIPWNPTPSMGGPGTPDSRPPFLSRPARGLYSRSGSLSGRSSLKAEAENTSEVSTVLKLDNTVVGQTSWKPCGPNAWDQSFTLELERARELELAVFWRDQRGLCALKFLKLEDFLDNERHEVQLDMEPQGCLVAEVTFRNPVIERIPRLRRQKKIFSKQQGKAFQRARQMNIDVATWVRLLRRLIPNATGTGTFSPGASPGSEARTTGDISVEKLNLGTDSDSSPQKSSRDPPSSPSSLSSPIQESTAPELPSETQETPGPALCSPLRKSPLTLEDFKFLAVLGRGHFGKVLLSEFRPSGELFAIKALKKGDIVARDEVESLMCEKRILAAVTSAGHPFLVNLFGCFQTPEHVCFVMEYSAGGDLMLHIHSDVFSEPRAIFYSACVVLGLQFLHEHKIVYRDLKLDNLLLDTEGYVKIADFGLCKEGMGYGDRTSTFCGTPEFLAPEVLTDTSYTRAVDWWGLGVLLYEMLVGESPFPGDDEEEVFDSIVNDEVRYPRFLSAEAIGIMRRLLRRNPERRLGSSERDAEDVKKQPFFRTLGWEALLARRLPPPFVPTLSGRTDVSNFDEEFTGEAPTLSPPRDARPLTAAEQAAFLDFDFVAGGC
Experiment: KiNativ assay
Assay type: binding
Conditions: H929 live cell, read-out: inhibition (10 μM)
Measured inhibition at 10 µM of individual entries
Quantity Name: inhibition at 10 µM (%)

- Nc1ncc(-c2ccc(NS(=O)(=O)C3CC3)cc2F)cc1-c1ccc2c(c1)CCNC2=O: -72.1
- Nc1ncc(-c2cccc([N+](=O)[O-])c2F)cc1-c1ccc2c(c1)CCNC2=O: 56.9
- COc1cc(NS(=O)(=O)C2CC2)ccc1-c1cnc(N)c(-c2ccc3c(c2)CCNC3=O)c1: -39.9
- Nc1ncc(-c2cccc3ncsc23)cc1-c1ccc2c(c1)CCNC2=O: 19
- Nc1ncc(-c2ccc(NS(=O)(=O)C3CC3)cc2OC2CCCCC2)cc1-c1ccc2c(c1)CCNC2=O: 35.9
- CN(C1CC1)S(=O)(=O)c1ccc(-c2cnc(N)c(-c3ccc4c(c3)CCNC4=O)c2)c(F)c1: 40.5

----------
Biological target: MAP3K1 (Homo sapiens (Human), UniProt Q13233)
Assay: KiNativ assay
Type: binding
Conditions: H929 live cell, read-out: inhibition (10 μM)
Protocol: Biochemical IC50s of the compounds of the present disclosure against various kinases were measured in a KiNativ assay. Compounds were screened in duplicate at 10 μM in H929 live cell. IC50 was measured via Mass spectroscopy (MS).
Property: inhibition at 10 µM; scope: individual molecules
Quantity Name: inhibition at 10 µM

* Nc1ncc(-c2ccc(NS(=O)(=O)C3CC3)cc2F)cc1-c1ccc2c(c1)CCNC2=O | 95.8%
* Nc1ncc(-c2cccc([N+](=O)[O-])c2F)cc1-c1ccc2c(c1)CCNC2=O | 95.6%
* Nc1ncc(-c2cccc3ncsc23)cc1-c1ccc2c(c1)CCNC2=O | 90.2%
* CN(C1CC1)S(=O)(=O)c1ccc(-c2cnc(N)c(-c3ccc4c(c3)CCNC4=O)c2)c(F)c1 | 91.1%
* COc1cc(NS(=O)(=O)C2CC2)ccc1-c1cnc(N)c(-c2ccc3c(c2)CCNC3=O)c1 | 86.7%
* Nc1ncc(-c2ccc(NS(=O)(=O)C3CC3)cc2OC2CCCCC2)cc1-c1ccc2c(c1)CCNC2=O | 48.5%

----------
Biological target: PFTAIRE1 (Homo sapiens (Human))
Sequence (O94921 whole entry): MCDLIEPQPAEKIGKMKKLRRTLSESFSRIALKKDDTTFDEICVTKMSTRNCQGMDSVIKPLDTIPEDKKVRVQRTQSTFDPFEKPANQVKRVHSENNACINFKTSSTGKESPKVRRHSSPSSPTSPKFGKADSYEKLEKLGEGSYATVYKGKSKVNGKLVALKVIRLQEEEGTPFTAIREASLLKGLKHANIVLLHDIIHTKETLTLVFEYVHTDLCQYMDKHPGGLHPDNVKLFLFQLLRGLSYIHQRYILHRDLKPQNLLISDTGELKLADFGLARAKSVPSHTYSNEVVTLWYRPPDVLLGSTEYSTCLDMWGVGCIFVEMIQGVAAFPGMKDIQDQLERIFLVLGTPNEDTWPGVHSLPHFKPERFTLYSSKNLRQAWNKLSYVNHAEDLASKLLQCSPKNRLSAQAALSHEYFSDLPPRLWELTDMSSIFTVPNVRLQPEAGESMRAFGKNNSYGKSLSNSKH
Sequence (Q8ND76 whole entry partner): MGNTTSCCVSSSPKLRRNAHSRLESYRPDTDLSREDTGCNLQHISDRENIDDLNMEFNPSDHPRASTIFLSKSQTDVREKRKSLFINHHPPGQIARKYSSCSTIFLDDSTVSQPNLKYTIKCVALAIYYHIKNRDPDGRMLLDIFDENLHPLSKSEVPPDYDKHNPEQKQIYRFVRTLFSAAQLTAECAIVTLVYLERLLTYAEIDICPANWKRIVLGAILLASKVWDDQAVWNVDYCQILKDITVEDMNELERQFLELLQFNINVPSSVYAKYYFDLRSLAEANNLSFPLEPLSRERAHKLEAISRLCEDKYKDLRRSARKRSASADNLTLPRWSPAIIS
Experiment: KiNativ assay
Type: binding
Conditions: H929 live cell, read-out: inhibition (10 μM)
Description: Biochemical IC50s of the compounds of the present disclosure against various kinases were measured in a KiNativ assay. Compounds were screened in duplicate at 10 μM in H929 live cell. IC50 was measured via Mass spectroscopy (MS).
Quantity Name: inhibition at 10 µM

* Nc1ncc(-c2ccc(NS(=O)(=O)C3CC3)cc2F)cc1-c1ccc2c(c1)CCNC2=O [Compound I-51] | 8.8%
* COc1cc(NS(=O)(=O)C2CC2)ccc1-c1cnc(N)c(-c2ccc3c(c2)CCNC3=O)c1 [Compound I-50] | -2.4%
* Nc1ncc(-c2ccc(NS(=O)(=O)C3CC3)cc2OC2CCCCC2)cc1-c1ccc2c(c1)CCNC2=O [Compound I-65] | -5.1%
* Nc1ncc(-c2cccc3ncsc23)cc1-c1ccc2c(c1)CCNC2=O [Compound I-13] | 49.2%
* CN(C1CC1)S(=O)(=O)c1ccc(-c2cnc(N)c(-c3ccc4c(c3)CCNC4=O)c2)c(F)c1 [Compound I-28] | 22.2%
* Nc1ncc(-c2cccc([N+](=O)[O-])c2F)cc1-c1ccc2c(c1)CCNC2=O [Compound I-9] | 74.6%

----------
Target: UniProt O00418
Sequence (O00418 whole entry): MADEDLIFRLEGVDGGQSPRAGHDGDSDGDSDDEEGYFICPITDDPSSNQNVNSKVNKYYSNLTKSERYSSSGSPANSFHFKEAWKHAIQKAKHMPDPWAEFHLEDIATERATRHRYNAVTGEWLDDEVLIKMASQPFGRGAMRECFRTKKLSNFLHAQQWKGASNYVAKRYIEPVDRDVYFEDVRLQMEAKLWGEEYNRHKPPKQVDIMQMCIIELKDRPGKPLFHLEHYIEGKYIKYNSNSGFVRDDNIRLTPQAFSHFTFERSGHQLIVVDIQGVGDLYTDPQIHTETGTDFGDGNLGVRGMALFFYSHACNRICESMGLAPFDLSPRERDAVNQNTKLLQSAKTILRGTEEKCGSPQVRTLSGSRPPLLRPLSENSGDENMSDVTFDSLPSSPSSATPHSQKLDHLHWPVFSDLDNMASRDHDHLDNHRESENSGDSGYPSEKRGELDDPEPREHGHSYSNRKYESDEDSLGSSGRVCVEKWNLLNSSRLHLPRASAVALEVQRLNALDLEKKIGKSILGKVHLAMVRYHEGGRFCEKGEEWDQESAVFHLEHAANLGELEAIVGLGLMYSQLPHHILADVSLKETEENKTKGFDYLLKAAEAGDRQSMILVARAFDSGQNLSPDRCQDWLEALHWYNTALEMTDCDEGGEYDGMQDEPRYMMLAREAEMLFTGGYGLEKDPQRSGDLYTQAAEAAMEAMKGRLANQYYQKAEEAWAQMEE
Test: KiNativ assay
Assay type: binding
Conditions: H929 live cell, read-out: inhibition (10 μM)
Protocol: Biochemical IC50s of the compounds of the present disclosure against various kinases were measured in a KiNativ assay. Compounds were screened in duplicate at 10 μM in H929 live cell. IC50 was measured via Mass spectroscopy (MS).
compounds and their reported inhibition at 10 µM
Quantity Name: inhibition at 10 µM (%)

- Nc1ncc(-c2cccc([N+](=O)[O-])c2F)cc1-c1ccc2c(c1)CCNC2=O [Compound I-9]: -94.7
- CN(C1CC1)S(=O)(=O)c1ccc(-c2cnc(N)c(-c3ccc4c(c3)CCNC4=O)c2)c(F)c1 [Compound I-28]: -15.1
- COc1cc(NS(=O)(=O)C2CC2)ccc1-c1cnc(N)c(-c2ccc3c(c2)CCNC3=O)c1 [Compound I-50]: -1
- Nc1ncc(-c2ccc(NS(=O)(=O)C3CC3)cc2F)cc1-c1ccc2c(c1)CCNC2=O [Compound I-51]: 7.7
- Nc1ncc(-c2ccc(NS(=O)(=O)C3CC3)cc2OC2CCCCC2)cc1-c1ccc2c(c1)CCNC2=O [Compound I-65]: -21.7
- Nc1ncc(-c2cccc3ncsc23)cc1-c1ccc2c(c1)CCNC2=O [Compound I-13]: -45.5

----------
Target: ZAK (Homo sapiens (Human))
Sequence (Q9NYL2 whole entry): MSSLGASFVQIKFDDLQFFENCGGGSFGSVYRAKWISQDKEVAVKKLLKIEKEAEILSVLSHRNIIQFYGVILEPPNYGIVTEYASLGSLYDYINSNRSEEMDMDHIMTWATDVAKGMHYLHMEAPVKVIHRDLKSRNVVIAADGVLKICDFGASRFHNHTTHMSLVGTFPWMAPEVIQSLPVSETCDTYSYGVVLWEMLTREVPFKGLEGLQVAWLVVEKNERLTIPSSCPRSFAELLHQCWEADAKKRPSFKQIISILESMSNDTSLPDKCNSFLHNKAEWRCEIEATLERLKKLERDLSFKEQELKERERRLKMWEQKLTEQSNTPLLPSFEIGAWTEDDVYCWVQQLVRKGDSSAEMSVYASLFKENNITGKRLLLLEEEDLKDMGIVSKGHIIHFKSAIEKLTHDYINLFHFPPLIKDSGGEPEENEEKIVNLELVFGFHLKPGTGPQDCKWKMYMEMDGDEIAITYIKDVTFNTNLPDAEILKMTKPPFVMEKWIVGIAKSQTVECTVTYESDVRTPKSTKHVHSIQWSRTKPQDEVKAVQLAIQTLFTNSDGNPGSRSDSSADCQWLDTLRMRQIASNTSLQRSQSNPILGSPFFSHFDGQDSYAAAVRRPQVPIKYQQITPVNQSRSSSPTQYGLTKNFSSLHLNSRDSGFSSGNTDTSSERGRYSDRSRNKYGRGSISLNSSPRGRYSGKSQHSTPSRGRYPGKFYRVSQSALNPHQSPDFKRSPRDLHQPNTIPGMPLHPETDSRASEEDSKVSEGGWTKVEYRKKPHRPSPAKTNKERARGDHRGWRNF
Experiment: KiNativ assay
Type: binding
Conditions: H929 live cell, read-out: inhibition (10 μM)
// label = met if inhibition at 10 µM is not less than 40%, otherwise not met

• Nc1ncc(-c2cccc3ncsc23)cc1-c1ccc2c(c1)CCNC2=O = met
• Nc1ncc(-c2cccc([N+](=O)[O-])c2F)cc1-c1ccc2c(c1)CCNC2=O = met
• CN(C1CC1)S(=O)(=O)c1ccc(-c2cnc(N)c(-c3ccc4c(c3)CCNC4=O)c2)c(F)c1 = not met
• COc1cc(NS(=O)(=O)C2CC2)ccc1-c1cnc(N)c(-c2ccc3c(c2)CCNC3=O)c1 = not met
• Nc1ncc(-c2ccc(NS(=O)(=O)C3CC3)cc2OC2CCCCC2)cc1-c1ccc2c(c1)CCNC2=O = not met
• Nc1ncc(-c2ccc(NS(=O)(=O)C3CC3)cc2F)cc1-c1ccc2c(c1)CCNC2=O = met

----------
Biological target: CHK1 (Homo sapiens (Human))
Sequence (O14757 whole entry): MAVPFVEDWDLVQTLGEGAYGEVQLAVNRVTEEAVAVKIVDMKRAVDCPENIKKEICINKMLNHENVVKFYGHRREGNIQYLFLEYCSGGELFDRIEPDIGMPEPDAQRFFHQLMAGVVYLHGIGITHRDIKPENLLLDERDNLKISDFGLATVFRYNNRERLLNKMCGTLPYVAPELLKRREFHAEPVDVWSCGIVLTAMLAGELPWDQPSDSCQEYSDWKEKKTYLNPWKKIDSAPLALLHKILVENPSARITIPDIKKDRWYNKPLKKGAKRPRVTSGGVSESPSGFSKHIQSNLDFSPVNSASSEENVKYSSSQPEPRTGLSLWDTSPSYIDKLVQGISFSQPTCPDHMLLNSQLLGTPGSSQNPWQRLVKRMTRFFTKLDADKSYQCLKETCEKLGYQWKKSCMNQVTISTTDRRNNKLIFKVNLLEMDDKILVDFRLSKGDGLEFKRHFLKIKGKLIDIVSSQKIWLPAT
Experiment: KiNativ assay
Assay type: binding
Settings: H929 live cell, read-out: inhibition (10 μM)
Quantity Name: inhibition at 10 µM (%)

* CN(C1CC1)S(=O)(=O)c1ccc(-c2cnc(N)c(-c3ccc4c(c3)CCNC4=O)c2)c(F)c1 | 27.5
* Nc1ncc(-c2ccc(NS(=O)(=O)C3CC3)cc2OC2CCCCC2)cc1-c1ccc2c(c1)CCNC2=O | -16
* Nc1ncc(-c2cccc([N+](=O)[O-])c2F)cc1-c1ccc2c(c1)CCNC2=O | 14.9
* Nc1ncc(-c2ccc(NS(=O)(=O)C3CC3)cc2F)cc1-c1ccc2c(c1)CCNC2=O | -20.1
* Nc1ncc(-c2cccc3ncsc23)cc1-c1ccc2c(c1)CCNC2=O | -8.9
* COc1cc(NS(=O)(=O)C2CC2)ccc1-c1cnc(N)c(-c2ccc3c(c2)CCNC3=O)c1 | -9.6

----------
# inhibition at 10 µM listing for each entry below
Molecular target: GSK3A (Homo sapiens (Human))
Sequence (P49840 whole entry): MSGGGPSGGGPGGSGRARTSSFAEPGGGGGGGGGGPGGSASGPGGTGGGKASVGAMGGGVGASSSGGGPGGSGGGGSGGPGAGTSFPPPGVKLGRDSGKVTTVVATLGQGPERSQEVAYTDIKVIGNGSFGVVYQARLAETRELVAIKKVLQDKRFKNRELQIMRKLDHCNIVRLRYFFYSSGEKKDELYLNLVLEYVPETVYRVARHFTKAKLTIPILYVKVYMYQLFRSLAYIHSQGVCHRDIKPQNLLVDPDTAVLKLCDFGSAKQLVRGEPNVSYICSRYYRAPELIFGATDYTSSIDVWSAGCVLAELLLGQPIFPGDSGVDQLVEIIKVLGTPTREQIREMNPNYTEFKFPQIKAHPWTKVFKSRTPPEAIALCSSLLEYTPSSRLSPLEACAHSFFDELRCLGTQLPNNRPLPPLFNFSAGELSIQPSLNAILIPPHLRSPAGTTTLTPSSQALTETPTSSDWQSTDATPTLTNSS
Assay: KiNativ assay
Type: binding
Conditions: H929 live cell, read-out: inhibition (10 μM)
Quantity Name: inhibition at 10 µM (%)

* Nc1ncc(-c2ccc(NS(=O)(=O)C3CC3)cc2OC2CCCCC2)cc1-c1ccc2c(c1)CCNC2=O | 86
* Nc1ncc(-c2ccc(NS(=O)(=O)C3CC3)cc2F)cc1-c1ccc2c(c1)CCNC2=O | 85.2
* COc1cc(NS(=O)(=O)C2CC2)ccc1-c1cnc(N)c(-c2ccc3c(c2)CCNC3=O)c1 | 77.4
* CN(C1CC1)S(=O)(=O)c1ccc(-c2cnc(N)c(-c3ccc4c(c3)CCNC4=O)c2)c(F)c1 | 93.5
* Nc1ncc(-c2cccc3ncsc23)cc1-c1ccc2c(c1)CCNC2=O | 91.6
* Nc1ncc(-c2cccc([N+](=O)[O-])c2F)cc1-c1ccc2c(c1)CCNC2=O | 97.2

----------
Biological target: UniProtKB P15735
Sequence (P15735 whole entry): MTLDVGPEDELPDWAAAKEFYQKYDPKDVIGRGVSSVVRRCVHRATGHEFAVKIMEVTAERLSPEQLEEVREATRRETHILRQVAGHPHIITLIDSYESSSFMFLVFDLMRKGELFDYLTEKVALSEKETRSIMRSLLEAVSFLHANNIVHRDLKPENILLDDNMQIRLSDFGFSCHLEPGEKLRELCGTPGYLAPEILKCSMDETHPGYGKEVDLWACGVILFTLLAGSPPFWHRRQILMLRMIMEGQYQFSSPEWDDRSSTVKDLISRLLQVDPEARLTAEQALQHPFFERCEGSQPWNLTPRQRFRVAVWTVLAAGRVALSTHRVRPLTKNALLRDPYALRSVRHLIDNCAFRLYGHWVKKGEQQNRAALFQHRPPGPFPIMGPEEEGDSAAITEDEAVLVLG
Experiment: KiNativ assay
Type: binding
Settings: H929 live cell, read-out: inhibition (10 μM)
Entry flag: true (1) if inhibition at 10 µM reaches -40%; false (0) if it does not.

• Nc1ncc(-c2cccc([N+](=O)[O-])c2F)cc1-c1ccc2c(c1)CCNC2=O = true (1)
• CN(C1CC1)S(=O)(=O)c1ccc(-c2cnc(N)c(-c3ccc4c(c3)CCNC4=O)c2)c(F)c1 = true (1)
• Nc1ncc(-c2ccc(NS(=O)(=O)C3CC3)cc2OC2CCCCC2)cc1-c1ccc2c(c1)CCNC2=O = false (0)
• Nc1ncc(-c2ccc(NS(=O)(=O)C3CC3)cc2F)cc1-c1ccc2c(c1)CCNC2=O = false (0)
• COc1cc(NS(=O)(=O)C2CC2)ccc1-c1cnc(N)c(-c2ccc3c(c2)CCNC3=O)c1 = true (1)
• Nc1ncc(-c2cccc3ncsc23)cc1-c1ccc2c(c1)CCNC2=O = true (1)

Where do these numbers come from? They come from patent US10710978B2.
